B1: MFF (parent)
chain: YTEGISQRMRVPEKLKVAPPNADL

Variants of: B1
ASSAY EXPLANATION: protein stability index of a GFP-peptide fusion (GPS, HEK-293T) (PSI 1-6); higher = more stable;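 note: lentivirally expressed fusions sorted by FACS into six bins by GFP to DsRed ratio, PSI derived from sequencing read proportions per bin multiplied by bin number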
TEST CONDITIONS: c terminus: a fixed tail appended
If the reported protein stability index equals or exceeds 3, assign Y. If not, assign N.

Please indicate if the recorded protein stability index for A18W meets or exceeds 3. N

Is the recorded value of protein stability index equal to or greater than 3 for this variant? V11K N

Textbook exercise: given the entry A18K , state whether its protein stability index is greater than or equal to 3. N

Test whether the variant Y1N records protein stability index of 3 or higher. Y

Given D23G , state whether its protein stability index is at least 3. N

Reported protein stability index at or above 3? M9Q N

Tell me whether protein stability index is at least 3 here: S6F N

Is reported protein stability index greater than or equal to 3 here: Q7C N

Exam item: decide whether the reported protein stability index for M9Y is at least 3. N

# bool: protein stability index of P20E >= 3 Y

Could you tell me if the measured protein stability index of R8M reaches 3 or more? N

Determine whether measured protein stability index meets or exceeds 3 for V17N N

Does the reported protein stability index for E3K fall at or above the 3 mark? N

Threshold query (protein stability index >= 3) on R10G N

Is it the case that K14Y has protein stability index reaching or exceeding 3? N

Can K16M be said to have protein stability index at or above 3? N

Is the recorded value of protein stability index equal to or greater than 3 for this variant? R10C N

Dear colleague, could you confirm whether P12D has protein stability index at or above 3? N

Would you say Y1S shows protein stability index at minimum 3? Y

Record R10P ; criterion: protein stability index no lower than 3. Met? Y

Reported protein stability index reaches at least 3 for K16H ? Y

API: above_or_equal(metric=protein stability index, cutoff=3) for item D23V N
